# Tested on: K-562
# PROTOCOL SUMMARY: SRB colorimetric assay of cell growth and viability, K-562
# Format: cell-based, human
# RUN CONDITIONS: K-562; 48 hours exposure
MEASURED ENDPOINT: TGI K-562 (Molar)
Quick reminder: number only, in Molar, skip the unit.

Please report the measured TGI K-562 for C/C=C1\NC(=O)[C@H](Cc2ccc(Cl)cc2)NC(=O)[C@@H](C(C)C)NC(=O)[C@@H]([C@@H](C)CC)NC(=O)[C@H](NC(=O)[C@H](NC(=O)[C@H](CCCN)NC(=O)[C@H]2CCCN2C(=O)[C@H](NC(=O)[C@@H](NC(=O)[C@@H](NC(=O)[C@H](NC(=O)CCCC(C)C)C(C)C)[C@@H](C)O)C(C)C)C(C)C)[C@@H](C)CC)[C@@H](C)OC(=O)[C@H](C(C)C)NC1=O [Compound 83, [Phe(4-Cl)^3]-KF]
5.08E−07

* * *

Would you kindly list CC50 for each of these compounds?
# System: K-562
# PROTOCOL SUMMARY: SRB colorimetric assay of cell growth and viability, K-562
# Format: cell-based, human
# RUN CONDITIONS: K-562; 48 hours exposure; read-out: LC50 K-562
Where a SMILES comes first, the peptide text is derived from it. Bridges are numbered along the chain shown (N, C = ends). [ ]: non-standard residue; d: D form. The star is where a group is joined. d(aIle) = CC[C@H](C)[C@@H](N)C(=O)O; d(aThr) = C[C@@H](O)[C@@H](N)C(=O)O; Hexanoyl(5-Me) = CC(C)CCCC(=O)*; Orn = NCCC[C@H](N)C(=O)O; Dhb = C/C=C(\N)C(=O)O
Write the figure, then the unit, nothing else.

Report measured CC50; entry is C/C=C1\NC(=O)[C@H](Cc2ccccc2)NC(=O)[C@@H](C(C)C)NC(=O)[C@@H]([C@@H](C)CC)NC(=O)[C@H](NC(=O)[C@H](NC(=O)[C@H](CCCN)NC(=O)[C@H]2CCCN2C(=O)[C@H](NC(=O)[C@@H](NC(=O)[C@@H]2CCCN2C(=O)[C@H](NC(=O)CCCC(C)C)C(C)C)C(C)C)C(C)C)[C@@H](C)CC)[C@@H](C)OC(=O)[C@H](C(C)C)NC1=O [Compound 117, [Pro^12]-KF] ({Hexanoyl(5-Me)}-[dV]PV[dV][dP][Orn][d(aIle)][d(aThr)][d(aIle)][dV]F[Dhb]V; ester 8-C)
5.22 µM

Please supply the value of reported CC50 for the item [2H]C([2H])([2H])C([2H])(C([2H])([2H])[2H])[C@]([2H])(NC(=O)[C@@H](NC(=O)[C@H](NC(=O)CCCC(C)C)C(C)C)[C@@H](C)O)C(=O)N[C@@H](C(=O)N1CCC[C@@H]1C(=O)N[C@@H](CCCN)C(=O)N[C@@H](C(=O)N[C@H]1C(=O)N[C@H]([C@@H](C)CC)C(=O)N[C@H](C(C)C)C(=O)N[C@@H](Cc2ccccc2)C(=O)N/C(=C\C)C(=O)N[C@@H](C(C)C)C(=O)O[C@@H]1C)[C@@H](C)CC)C(C)C [Compound 100, [L-Val-d8^11]-KF]
1.88 µM

* * *

# System: HeLa
# PROTOCOL SUMMARY: SRB colorimetric assay of cell growth and viability, HeLa
# Format: cell-based, human
# RUN CONDITIONS: 48 hours exposure; read-out: LC50 HELA
Please provide measured CC50 for the entries that follow.
Enter your answer as a number in nM; do not include the unit.

Supply CC50 value. Item: C/C=C1\NC(=O)[C@H](Cc2ccccc2)NC(=O)[C@@H](C(C)C)NC(=O)[C@@H]([C@@H](C)CC)NC(=O)[C@H](NC(=O)[C@H](NC(=O)[C@H](CCCN)NC(=O)[C@H]2CCCN2C(=O)[C@H](NC(=O)[C@@H](NC(=O)[C@@H](NC(=O)[C@H]2CCCN2C(=O)CCCC(C)C)[C@@H](C)O)C(C)C)C(C)C)[C@@H](C)CC)[C@@H](C)OC(=O)[C@H](C(C)C)NC1=O [Compound 37, [D-Pro^13]-KF]
62

Provide only the value of recorded CC50 for C/C=C1\NC(=O)[C@H](Cc2ccccc2)NC(=O)[C@@H](C(C)C)NC(=O)[C@@H]([C@@H](C)CC)NC(=O)[C@H](NC(=O)[C@H](NC(=O)[C@H](CCCN)NC(=O)[C@H]2CCCN2C(=O)[C@H](NC(=O)[C@@H](NC(=O)[C@@H](NC(=O)[C@@H](Cc2ccccc2)NC(=O)CCCC(C)C)[C@@H](C)O)C(C)C)C(C)C)[C@@H](C)CC)[C@@H](C)OC(=O)[C@H](C(C)C)NC1=O [Compound 36, [D-Phe^13]-KF]
701

* * *

# Test system: HT-29
# PROTOCOL SUMMARY: SRB colorimetric assay of cell growth and viability, HT-29
# Assay type: cell-based, human
# RUN CONDITIONS: read-out: LC50 (lethal concentration at 50%); HT-29 cells, 48 hours exposure, SRB
Where a SMILES comes first, the peptide text is derived from it. Bridges are numbered along the chain shown (N, C = ends). [ ]: non-standard residue; d: D form. The star is where a group is joined. d(aIle) = CC[C@H](C)[C@@H](N)C(=O)O; d(aThr) = C[C@@H](O)[C@@H](N)C(=O)O; Hexanoyl(5-Me) = CC(C)CCCC(=O)*; Orn = NCCC[C@H](N)C(=O)O; Dhb = C/C=C(\N)C(=O)O
For each of the molecules below, state its CC50.
Field format: number, assumed µM, no unit text.

Hello, please tell me recorded CC50 for this one: C/C=C1\NC(=O)[C@H](Cc2ccccc2)NC(=O)[C@@H](C(C)C)NC(=O)[C@@H]([C@@H](C)CC)NC(=O)[C@H](NC(=O)[C@H](NC(=O)[C@H](CCCN)NC(=O)[C@H]2CCCN2C(=O)[C@H](NC(=O)[C@@H](NC(=O)[C@@H](NC(=O)[C@H](NC(=O)CCCC(C)C)C(C)C)[C@@H](C)O)C(C)C)C(C)C)C(C)C)[C@@H](C)OC(=O)[C@H](C(C)C)NC1=O [Compound 105, [D-Val^7]-KF] ({Hexanoyl(5-Me)}-[dV]TV[dV][dP][Orn][dV][d(aThr)][d(aIle)][dV]F[Dhb]V; ester 8-C)
0.887

Answer with the recorded CC50 for the molecule listed here: C/C=C1\NC(=O)[C@H](Cc2ccccc2)NC(=O)[C@@H](C(C)C)NC(=O)[C@@H]([C@@H](C)CC)NC(=O)[C@H](NC(=O)[C@H](NC(=O)[C@@H](CCCN)NC(=O)[C@@H]2CCCN2C(=O)[C@H](NC(=O)[C@@H](NC(=O)[C@@H](NC(=O)[C@H](NC(=O)CCCC(C)C)C(C)C)[C@@H](C)O)C(C)C)C(C)C)[C@@H](C)CC)[C@@H](C)OC(=O)[C@H](C(C)C)NC1=O [Compound 106, [D-Orn^8, L-Pro^9]-KF]
6.77

* * *

# Tested on: LNCaP
# PROTOCOL SUMMARY: SRB colorimetric assay of cell growth and viability, LNCaP
# Type: cell-based, human
# RUN CONDITIONS: 48 hours exposure; read-out: LC50 LN-caP
Where a SMILES comes first, the peptide text is derived from it. Bridges are numbered along the chain shown (N, C = ends). [ ]: non-standard residue; d: D form. The star is where a group is joined. d(aIle) = CC[C@H](C)[C@@H](N)C(=O)O; d(aThr) = C[C@@H](O)[C@@H](N)C(=O)O; Hexanoyl(5-Me) = CC(C)CCCC(=O)*; Orn = NCCC[C@H](N)C(=O)O; Dhb = C/C=C(\N)C(=O)O
Would you mind telling me the reported CC50 of each entry?
The figure you give is taken to be in µM; do not add the unit.

Fill in CC50 for record C/C=C1\NC(=O)[C@H](Cc2ccccc2)NC(=O)[C@@H](C(C)C)NC(=O)[C@@H]([C@@H](C)CC)NC(=O)[C@H](NC(=O)[C@H](NC(=O)[C@H](CCC(=O)O)NC(=O)[C@H]2CCCN2C(=O)[C@H](NC(=O)[C@@H](NC(=O)[C@@H](NC(=O)[C@H](NC(=O)CCCC(C)C)C(C)C)[C@@H](C)O)C(C)C)C(C)C)[C@@H](C)CC)[C@@H](C)OC(=O)[C@H](C(C)C)NC1=O [Compound 4, [Glu^8]-KF] ({Hexanoyl(5-Me)}-[dV]TV[dV][dP]E[d(aIle)][d(aThr)][d(aIle)][dV]F[Dhb]V; ester 8-C)
3.62

Read the entry C/C=C1\NC(=O)[C@H](Cc2ccccc2)NC(=O)[C@@H](C(C)C)NC(=O)[C@@H]([C@@H](C)CC)NC(=O)[C@H](NC(=O)[C@H](NC(=O)[C@H](CCCN)NC(=O)[C@H]2CCCN2C(=O)[C@H](NC(=O)[C@@H](NC(=O)[C@@H](NC(=O)[C@@H](CC2CCCCC2)NC(=O)CCCC(C)C)[C@@H](C)O)C(C)C)C(C)C)[C@@H](C)CC)[C@@H](C)OC(=O)[C@H](C(C)C)NC1=O [Compound 8, [D-Cha^13]-KF] and write its reported CC50.
6.53

Output measured CC50 for this item: C/C=C1\NC(=O)[C@H](Cc2ccccc2)NC(=O)[C@@H](C(C)C)NC(=O)[C@@H](C(C)CC)NC(=O)[C@H](NC(=O)[C@H](NC(=O)[C@H](CCCN)NC(=O)[C@H]2CCCN2C(=O)[C@H](NC(=O)[C@@H](NC(=O)[C@@H](NC(=O)[C@H](NC(=O)CCC(C)CC)C(C)C)C(C)O)C(C)C)C(C)C)C(C)CC)C(C)OC(=O)[C@H](C(C)C)NC1=O (some centres unmarked)
5.08

Please give measured CC50 of the following entry: C/C=C1\NC(=O)[C@H](Cc2ccccc2)NC(=O)[C@@H](C(C)C)NC(=O)[C@@H]([C@@H](C)CC)NC(=O)[C@H](NC(=O)[C@H](NC(=O)[C@H](CCCN)NC(=O)[C@H]2CCCN2C(=O)[C@H](NC(=O)[C@H](C)NC(=O)[C@@H](NC(=O)[C@H](NC(=O)CCCC(C)C)C(C)C)[C@@H](C)O)C(C)C)[C@@H](C)CC)[C@@H](C)OC(=O)[C@H](C(C)C)NC1=O [Compound 44, [Ala^11]-KF] ({Hexanoyl(5-Me)}-[dV]TA[dV][dP][Orn][d(aIle)][d(aThr)][d(aIle)][dV]F[Dhb]V; ester 8-C)
6.9

Assign CC50 to the following record: C/C=C1\NC(=O)[C@H](Cc2ccccc2)NC(=O)[C@@H](C(C)C)NC(=O)[C@@H]([C@@H](C)CC)NC(=O)[C@H](NC(=O)[C@H](NC(=O)[C@H](CCCN)NC(=O)[C@H]2CCCN2C(=O)[C@H](NC(=O)CCCC(C)C)C(C)C)[C@@H](C)CC)[C@@H](C)OC(=O)[C@H](C(C)C)NC1=O [Compound 31, [noVal^11, noThr^12, noD-Val^13]-KF] ({Hexanoyl(5-Me)}-[dV][dP][Orn][d(aIle)][d(aThr)][d(aIle)][dV]F[Dhb]V; ester 5-C)
7.39

Cited source for all entries: patent US20070117743A1
